System: Fibroblast (Flow 4000, lung fibroblasts)
test-protocol: toxicity on normal cells, tetrazolium-based proliferation assay (EZ4U kit)
Assay type: cell-based
stated-conditions: concentration of 1:400; normal cells, Flow 4000 lung fibroblasts; 4 days incubation

# compound, system-name, % Inhibition of growth [%]
rows = [
    ("CCN(CC)CC#CCOC(C)=O [L9]", "Fibroblast (Flow 4000, lung fibroblasts)", 5.4),
    ("CCC(=O)OCC#CCN1CCOCC1 [L15, N-(4-morpholino-2-butynyl)propionate]", "Fibroblast (Flow 4000, lung fibroblasts)", 13),
    ("CC(=O)OCC#CCN1CCSCC1 [L13, N-(4-thiomorpholino-2-butynyl)acetate]", "Fibroblast (Flow 4000, lung fibroblasts)", 19),
]

###

This section presents compounds with their documented % Inhibition of growth values.
System: Fibroblast (Flow 4000, lung fibroblasts)
test-protocol: toxicity on normal cells, tetrazolium-based proliferation assay (EZ4U kit)
Format: cell-based
stated-conditions: concentration of 1:400; normal cells, Flow 4000 lung fibroblasts; 4 days incubation

# compound, % Inhibition of growth / %
records = [
    ("CC(=O)OCC#CCN(c1ccccc1)c1ccccc1", "−7.6"),
    ("CC(C)(C)C(=O)OCC#CCN1CCOCC1 [L18, N-(4-morpholino-2-butynyl)pivalate]", 7),
    ("CC(=O)OCC#CCN1CCOCC1 [L2, N-(4-morpholino-2-butynyl)acetate]", 18),
    ("O=COCC#CCN1CCOCC1 [L6, N-(4-morpholino-2-butynyl)formate]", 37.4),
    ("O=C(OCC#CCN1CCOCC1)c1ccccc1 [L4, N-(4-morpholino-2-butynyl)benzoate]", 34.2),
]
